- Test system: Mesenchymal stem cells
- experimental-details: Induction of adipogenesis differentiation in human Mesenchymal stem cells at 20 uM incubated for 21 days by […] staining-based microscopic analysis
- Assay type: functional, cell-based
- conditions: time 21.0 day
Calls of active or inactive are those of the source. The calls are words filed in the database; no cut-off is given here.
Permitted responses: Yes = active, No = inactive

Look over these answered cases.
[[record]]
input_smiles = "Cc1nc(-c2ccc(C(F)(F)F)cc2)sc1CN(C)c1ccc(/C=C/C(=O)O)c(C(C)C)c1"
tested_system = "Mesenchymal stem cells"
cat = "No"

[[record]]
input_smiles = "CCN(Cc1sc(-c2ccc(C(F)(F)F)cc2)nc1C)c1ccc(/C=C/C(=O)O)cc1"
tested_system = "Mesenchymal stem cells"
cat = "Yes"

[[record]]
input_smiles = "Cc1nc(-c2ccc(C(F)(F)F)cc2)sc1CNc1ccc(/C=C/C(=O)O)cc1"
tested_system = "Mesenchymal stem cells"
cat = "Yes"


Q: Call for entry Cc1nc(-c2ccc(C(F)(F)F)cc2)sc1CN(C)c1ccc(/C=C/C(=O)O)cc1 :
A: Yes

Q: Call for entry Cc1nc(-c2ccccc2)sc1CN(C)c1ccc(/C=C/C(=O)O)cc1 :
A: Yes
